Protein target, amino acids: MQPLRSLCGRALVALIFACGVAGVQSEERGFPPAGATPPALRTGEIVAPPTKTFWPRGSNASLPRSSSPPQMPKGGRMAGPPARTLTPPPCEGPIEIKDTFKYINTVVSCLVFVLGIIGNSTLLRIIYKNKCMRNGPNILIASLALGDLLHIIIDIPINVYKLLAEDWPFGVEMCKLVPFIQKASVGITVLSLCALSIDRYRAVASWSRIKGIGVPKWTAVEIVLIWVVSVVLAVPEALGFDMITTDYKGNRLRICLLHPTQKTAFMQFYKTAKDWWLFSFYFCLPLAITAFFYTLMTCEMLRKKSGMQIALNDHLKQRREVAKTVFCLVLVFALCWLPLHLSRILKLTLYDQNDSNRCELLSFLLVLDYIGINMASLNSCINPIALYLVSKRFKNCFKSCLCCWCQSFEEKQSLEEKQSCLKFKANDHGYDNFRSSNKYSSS
// NB: equality with 20 µM counts as label 0; only IC50 strictly below is label 1

Reference set (5 entries):
[[record]]
compound = "O=C(O)C(Cc1ccc(O)cc1)N(Cc1cc2c(cc1Cl)OCO2)C(=O)/C=C/c1ccc2c(c1)OCO2 (stereo unspecified)"
category_label = "label 0"

[[record]]
compound = "COc1ccc(CN(Cc2cc(OC)c(OC)c(OC)c2)C(Cc2c[nH]c3ccccc23)C(=O)O)cc1 (stereo unspecified)"
category_label = "label 0"

[[record]]
compound = "O=C(O)C(Cc1c[nH]c2ccccc12)N(Cc1cc2c(cc1Cl)OCO2)C(=O)/C=C/c1ccc2c(c1)OCO2 (stereo unspecified)"
category_label = "label 1"

[[record]]
compound = "COc1ccc(CC(C(=O)O)N(Cc2ccc(OC)cc2)Cc2cc(OC)c(OC)c(OC)c2)cc1 (stereo unspecified)"
category_label = "label 1"

[[record]]
compound = "COc1ccc(CN(C(=O)c2ccc(OC)cc2)C(Cc2c[nH]c3ccccc23)C(=O)O)cc1 (stereo unspecified)"
category_label = "label 0"


Please examine the following record next.
Just wondering, is IC50 of COc1ccc(CN(C(=O)/C=C/c2ccc3c(c2)OCO3)C(Cc2ccccc2)C(=O)O)cc1 (stereo unspecified) below 20 µM?
label 1
